For each entry below, report its Cmax value.
assay-remarks: Estimated maximum unbound hepatic inlet plasma concentrations of cannabinoids after oral or inhaled THC or CBD
Set-up: species or system human
measurement-conditions: THC 160 mg oral; doses and Cmax from Bansal et al., 2022; read-out: Cmax,hepatic inlet,u
Answers are plain numbers, in µM.

molecule	Cmax / µM
CCCCCc1cc(O)c2c(c1)OC(C)(C)[C@@H]1CCC(C(=O)O)=C[C@@H]21	1.5

Now, please, on to the next molecule.
[in] Specify Cmax for CCCCCc1cc(O)c2c(c1)OC(C)(C)[C@@H]1CCC(C)=C[C@@H]21 [THC, Δ^9-tetrahydrocannabinol, reference compound] and stop.
[out] 0.24

* * *

target-system: UGT2B7 (Homo sapiens)
Sequence (P16662 24-529): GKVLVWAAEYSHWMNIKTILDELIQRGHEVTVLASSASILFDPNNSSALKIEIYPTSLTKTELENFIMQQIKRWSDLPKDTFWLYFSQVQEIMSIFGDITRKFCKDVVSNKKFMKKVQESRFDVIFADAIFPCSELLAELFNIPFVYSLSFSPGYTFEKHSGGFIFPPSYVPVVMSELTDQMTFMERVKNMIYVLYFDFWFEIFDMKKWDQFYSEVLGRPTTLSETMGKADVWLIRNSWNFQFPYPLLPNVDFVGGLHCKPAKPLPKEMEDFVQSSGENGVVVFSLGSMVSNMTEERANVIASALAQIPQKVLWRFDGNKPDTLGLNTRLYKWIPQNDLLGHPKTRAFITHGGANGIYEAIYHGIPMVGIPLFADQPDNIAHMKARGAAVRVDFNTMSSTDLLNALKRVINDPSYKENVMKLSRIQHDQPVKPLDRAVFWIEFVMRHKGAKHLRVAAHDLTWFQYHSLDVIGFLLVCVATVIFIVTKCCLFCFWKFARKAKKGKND
assay-remarks: Inhibition of UGT2B7-mediated hydromorphone glucuronidation by cannabinoids in pooled HLM (screening, IC50, Ki, inhibition type)
Type: biochemical
measurement-conditions: human, pooled human liver microsomes; HLM; Ki corrected for nonspecific binding (fu,inc from refs 32,33; 11-OH-THC fu,inc as surrogate for 7-OH-CBD); competitive model, mixed model for 11-OH-THC; read-out: Ki,u
parameter: pKi
Give bare numbers, as −log10 of the molar value.

[in] Specify pKi for `C=C(C)[C@@H]1CCC(C)=C[C@H]1c1c(O)cc(CCCCC)cc1O` and stop.
[out] 7.17

* * *

For each entry below, report its Cmax value.
assay-remarks: Estimated maximum unbound hepatic inlet plasma concentrations of cannabinoids after oral or inhaled THC or CBD
Set-up: species or system human
measurement-conditions: THC 25 mg inhalation; doses and Cmax from Bansal et al., 2022; read-out: Cmax,hepatic inlet,u
Answers are plain numbers, in µM.

compound	reported-value
CCCCCc1cc(O)c2c(c1)OC(C)(C)[C@@H]1CCC(C(=O)O)=C[C@@H]21 [11-COOH-THC, 11-nor-9-carboxy (COOH)-Δ^9-THC]	0.07

[in] Specify Cmax for CCCCCc1cc(O)c2c(c1)OC(C)(C)[C@@H]1CCC(C)=C[C@@H]21 [THC, Δ^9-tetrahydrocannabinol, reference compound] and stop.
[out] 0.25

* * *

For each entry below, report its Ki value.
target-system: UGT2B7 in pooled human liver microsomes (HLM) (Homo sapiens)
Sequence (P16662 24-529): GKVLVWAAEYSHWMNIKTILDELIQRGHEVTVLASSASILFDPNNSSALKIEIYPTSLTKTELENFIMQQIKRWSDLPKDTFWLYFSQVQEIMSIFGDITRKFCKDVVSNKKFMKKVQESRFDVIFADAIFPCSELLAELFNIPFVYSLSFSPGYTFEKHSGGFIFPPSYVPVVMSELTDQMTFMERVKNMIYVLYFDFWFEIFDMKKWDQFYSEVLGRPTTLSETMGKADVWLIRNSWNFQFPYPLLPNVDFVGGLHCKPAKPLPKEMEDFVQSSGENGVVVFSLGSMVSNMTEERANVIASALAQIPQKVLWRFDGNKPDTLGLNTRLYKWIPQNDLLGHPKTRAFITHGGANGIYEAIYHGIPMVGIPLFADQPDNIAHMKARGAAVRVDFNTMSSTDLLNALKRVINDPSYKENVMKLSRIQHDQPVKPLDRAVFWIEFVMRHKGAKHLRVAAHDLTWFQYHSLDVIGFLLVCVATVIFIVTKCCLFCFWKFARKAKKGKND
assay-remarks: Inhibition of UGT2B7-mediated hydromorphone glucuronidation by cannabinoids in pooled HLM (screening, IC50, Ki, inhibition type)
Type: biochemical
measurement-conditions: HLM; Ki corrected for nonspecific binding (fu,inc from refs 32,33; 11-OH-THC fu,inc as surrogate for 7-OH-CBD); competitive model, mixed model for 11-OH-THC; read-out: Ki,u
One number for each entry, in nM.

molecule	parameter	reported-value
C=C(C)[C@@H]1CCC(CO)=C[C@H]1c1c(O)cc(CCCCC)cc1O [7-OH-CBD, 7-hydroxycannabidiol]	Ki	740

Now, please, on to the next molecule.
[in] Specify Ki for CCCCCc1cc(O)c2c(c1)OC(C)(C)[C@@H]1CCC(C)=C[C@@H]21 [THC, Δ^9-tetrahydrocannabinol, reference compound] and stop.
[out] 170

All values here come from paper PMC12597549.
